Data credit: patent US8772505B2

Tested on: HCV replicon genotype 1b c16
MEASUREMENT_DESCRIPTION: HCV replicon assay, genotype 1b c16
Assay type: cell-based
REPORTED_CONDITIONS: Hepatitis C virus
pEC50: −log10 of the molar value.

{"columns": ["COMPOUND", "pEC50"],
 "data": [
  ["COC(=O)N[C@H](C(=O)N1CCC[C@H]1c1nc2ccc(-c3ccc(-c4ccc5nc([C@@H]6CCCN6C(=O)[C@@H](NC(=O)OC)C(C)C)[nH]c5c4)c(OC(F)(F)F)c3)cc2[nH]1)C(C)C [Compound 129]", 11.52]
]}

* * *

Tested on: HCV replicon
MEASUREMENT_DESCRIPTION: Cell-based HCV replicon assay (EC90)
REPORTED_CONDITIONS: Hepatitis C virus, 72 h; replicon RNA by real time PCR (Taqman), day 3; class symbols; read-out: Biological Activity (EC90, HCV replicon)
EXPERIMENTAL_READOUT: EC90

{"columns": ["MOLECULE", "RESULT"],
 "data": [
  ["COC(=O)N[C@H](C(=O)N1CCC[C@H]1c1nc2ccc(-c3ccc(-c4ccc5nc([C@@H]6CCCN6C(=O)[C@@H](NC(=O)OC)C(C)C)[nH]c5c4)c4c3ccn4C)cc2[nH]1)C(C)C [Compound 133]", "< 1 nM"],
  ["CC(=O)N1CCC[C@H]1c1nc2ccc(-c3ccc(-c4ccc5nc([C@@H]6CCCN6C(C)=O)[nH]c5c4)nc3)cc2[nH]1 [Compound 42]", "> 1000 nM"],
  ["c1cc(-c2ccc3nc([C@@H]4CCCN4)[nH]c3c2)ncc1-c1ccc2nc([C@@H]3CCCN3)[nH]c2c1 [Compound 43]", "> 1000 nM"],
  ["COC(=O)N[C@H](C(=O)N1CCC[C@H]1c1nc2ccc(-c3ccc(-c4ccc5nc([C@@H]6CCCN6C(=O)[C@@H](NC(=O)OC)C(C)C)[nH]c5c4)nc3)cc2[nH]1)C(C)C [Compound 44]", "< 1 nM"],
  ["COC(=O)N[C@H](C(=O)N1CCC[C@H]1c1nc2ccc(-c3cnc(-c4ccc5nc([C@@H]6CCCN6C(=O)[C@@H](NC(=O)OC)C(C)C)[nH]c5c4)cn3)cc2[nH]1)C(C)C [Compound 64]", "< 1 nM"]
]}
